- System: S. aureus
- protocol.text: in vitro antimicrobial activity, serial dilution, S. aureus
- Type: cell-based
- assay.setup: Staphylococcus aureus; in vitro; read-out: minimum inhibitory concentration (MIC), bacteriostatic activity against S. aureus
endpoint.name: MIC

structure.smiles.string | assayed.system | val
CN(C)CCCOc1ccc2c(Cc3ccccc3)c3ccccc3[n+](C)c2c1.Cl.[Cl-] | S. aureus | 31.3 mg/L
CN(C)CCOc1ccc2c(Cc3ccccc3)c3ccccc3[n+](C)c2c1.Cl.[Cl-] | S. aureus | 31.3 mg/L
CN(C)CCOc1ccc2c(c1)c(Cc1ccc(Cl)cc1)c1ccccc1[n+]2C.Cl.[Cl-] | S. aureus | 7.8 mg/L
CCN(CC)CCOc1ccc2c(c1)c(Cc1ccccc1)c1ccccc1[n+]2C.Cl.[Cl-] | S. aureus | 31.3 mg/L
CN(C)CCOc1ccc2c(c1)c(Cc1cccc(F)c1)c1ccccc1[n+]2C.Cl.[Cl-] | S. aureus | 15.6 mg/L
